# measurement context: in toluene, 313.15 K
assay readout: solubility (mole fraction)
Give bare numbers.

*Q* Would you mind telling me what solubility (mole fraction) value was observed for COC(=O)C1=C(C)NC(C)=C(C(=O)OCC(C)C)C1c1ccccc1[N+](=O)[O-] (stereo unspecified) ?
*A* 0.005

====

# measurement context: in ethyl acetate, 288.15 K
assay readout: solubility (mole fraction)
Numbers only.

*Q* Would you mind telling me what solubility (mole fraction) value was observed for COC(=O)C1=C(C)NC(C)=C(C(=O)OCC(C)C)C1c1ccccc1[N+](=O)[O-] (stereo unspecified) ?
*A* 0.0215

====

# measurement context: in acetonitrile, 303.15 K
assay readout: solubility (mole fraction)
Numbers only.

*Q* Would you mind telling me what solubility (mole fraction) value was observed for COC(=O)C1=C(C)NC(C)=C(C(=O)OCC(C)C)C1c1ccccc1[N+](=O)[O-] (stereo unspecified) ?
*A* 0.0197

All values here come from BigSolDB 2.1.
